Measured responders at 0.8 µM by item
- System: renal progenitor cells (lhx1a expression)
- test.method.notes: In situ hybridization for lhx1a expression in 10-somite embryos (renal progenitor cell expansion)
- Type: in vivo
- condition.parameters: Danio rerio, 800 nM; read-out: embryos with expanded lhx1a expression (% expansion)
- Description: PTBA was synthesized as described below. Hydroxyurea and aphidicolin were obtained from Sigma-Aldrich. In situ hybridization and immunocytochemistry: In situ hybridization was performed as previously described with some modifications. 142 Hybridization temperature was 65° C. Embryos were blocked in 2% blocking reagent (Roche) with 5% sheep serum in MAB (100 mM maleic acid and 150 mM NaCl [pH 7.5]). […]
measured.metric: responders at 0.8 µM (%)

[[record]]
compound = "COC(=O)CCCSc1ccc(C)cc1 [methyl 4-[(4-methylphenyl)thio]butanoate]"
assay_target = "renal progenitor cells (lhx1a expression)"
output_unit = "%"
result_operator = "="
result_number = 49

[[record]]
compound = "Cc1ccc(SCCCC(=O)NO)cc1"
assay_target = "renal progenitor cells (lhx1a expression)"
output_unit = "%"
result_operator = "="
result_number = 61

[[record]]
compound = "O=C(O)CCCSc1ccccc1 [PTBA, 4-(phenylthio)butanoic acid]"
assay_target = "renal progenitor cells (lhx1a expression)"
output_unit = "%"
result_operator = "<"
result_number = 25

[[record]]
compound = "COC(=O)CCCSc1ccc(OC)cc1 [UPHD-00022]"
assay_target = "renal progenitor cells (lhx1a expression)"
output_unit = "%"
result_operator = "="
result_number = 57

[[record]]
compound = "COC(=O)CCCSc1ccc(F)cc1 [methyl 4-[(4-fluorophenyl)thio]butanoate]"
assay_target = "renal progenitor cells (lhx1a expression)"
output_unit = "%"
result_operator = "="
result_number = 64

[[record]]
compound = "O=C(CCCSc1ccc(F)cc1)NO [UPHD-00029]"
assay_target = "renal progenitor cells (lhx1a expression)"
output_unit = "%"
result_operator = "="
result_number = 60


Every entry's value here was drawn from patent US10233201B2.
